# protocol.notes: in vivo
# condition: female, 129sv DHP-1 knockout, mouse, sc, 50 mg/kg
Attribute: AUC(0-t)
Please state the figure in ng·h/mL; there is no need to write the unit.

Sample records with AUC(0-t):
Using the record for O=C(Cc1cccs1)N[C@@H]1C(=O)N2C(C(=O)O)=C(CSc3cccc[n+]3[O-])CS[C@H]12 [TBBL-0000001] , report its AUC(0-t).
38100

What does the data say about its AUC(0-t)? Entry: O=C(Cc1ccc(C2=NCCN2)cc1)N[C@@H]1C(=O)N2C(C(=O)O)=C(CSc3nncs3)CS[C@H]12 [TBBL-0000316]
23700

Need AUC(0-t), item NC(C(=O)N[C@@H]1C(=O)N2C(C(=O)O)=C(CSc3cccc[n+]3[O-])CS[C@H]12)c1ccc(O)cc1 (some centres unmarked) [TBBL-0000652]
11500

Continuing:
Quick check: AUC(0-t) of O=C(CCCC(NC(=O)c1ccc(Cl)cc1Cl)C(=O)O)N[C@@H]1C(=O)N2C(C(=O)O)=C(CSc3cccc[n+]3[O-])CS[C@H]12 (some centres unmarked) [TBBL-0000552] ?
3660

Need AUC(0-t), item CN(C)C(=S)SCC1=C(C(=O)O)N2C(=O)[C@@H](NC(=O)Cc3cccs3)[C@H]2SC1 [TBBL-0000009]
975

* * *

# protocol.notes: in vitro
# condition: SD, rat, plasma, pH 7.4, % bound to plasma
Decide using fraction unbound at 4 h, 2 μM: a value greater than or equal to 0.1 is true, a smaller one is false.

Solved cases (3 shown):
Record O=C(O)C1=C(CSc2cccc[n+]2[O-])CS[C@@H]2[C@H](NC(=O)/C(=N\Oc3ccccc3)c3ccco3)C(=O)N12 ; criterion: fraction unbound at 4 h, 2 μM no lower than 0.1. Met?
true

// inclusive: fraction unbound at 4 h, 2 μM at least 0.1? input: O=C(Cc1cccs1)N[C@@H]1C(=O)N2C(C(=O)O)=C(CSc3cccc[n+]3[O-])CS[C@H]12
true

Threshold query (fraction unbound at 4 h, 2 μM >= 0.1) on CN(C)C(=S)SCC1=C(C(=O)O)N2C(=O)[C@@H](NC(=O)Cc3cccs3)[C@H]2SC1
false

***
Would you say O=C(CCCC(NC(=O)c1ccc(Cl)cc1Cl)C(=O)O)N[C@@H]1C(=O)N2C(C(=O)O)=C(CSc3cccc[n+]3[O-])CS[C@H]12 (some centres unmarked) shows fraction unbound at 4 h, 2 μM at minimum 0.1?
true

Kindly determine if fraction unbound at 4 h, 2 μM recorded for O=C(Cc1ccc(C2=NCCN2)cc1)N[C@@H]1C(=O)N2C(C(=O)O)=C(CSc3nncs3)CS[C@H]12 is above or exactly 0.1.
true

* * *

# protocol.notes: physchem
# condition: simulated gi fluid, pH 1.2
reported.metric: remaining at 1 h, 10 μM (%)
// note: answer is a bare numeric in %

State the recorded remaining at 1 h, 10 μM for this entry: O=C(Cc1cccs1)N[C@@H]1C(=O)N2C(C(=O)O)=C(CSc3cccc[n+]3[O-])CS[C@H]12 [TBBL-0000001]
102

Next:
For O=C(Cc1ccc(C2=NCCN2)cc1)N[C@@H]1C(=O)N2C(C(=O)O)=C(CSc3nncs3)CS[C@H]12 [TBBL-0000316] , what is its reported remaining at 1 h, 10 μM?
83.7

Report remaining at 1 h, 10 μM for O=C(O)C1=C(CSc2cccc[n+]2[O-])CS[C@@H]2[C@H](NC(=O)/C(=N\Oc3ccccc3)c3ccco3)C(=O)N12 [TBBL-0000005] please.
120

Sample O=C(CCCC(NC(=O)c1ccc(Cl)cc1Cl)C(=O)O)N[C@@H]1C(=O)N2C(C(=O)O)=C(CSc3cccc[n+]3[O-])CS[C@H]12 (some centres unmarked) [TBBL-0000552] — what was its remaining at 1 h, 10 μM?
105

Which measured remaining at 1 h, 10 μM value corresponds to CN(C)C(=S)SCC1=C(C(=O)O)N2C(=O)[C@@H](NC(=O)Cc3cccs3)[C@H]2SC1 [TBBL-0000009] ?
31.7
